Property: IC50; scope: individual molecules
- measurement-target: G-protein coupled receptor family C group 6 member A (Mus musculus, UniProt Q8K4Z6)
- Sequence (Q8K4Z6 whole entry): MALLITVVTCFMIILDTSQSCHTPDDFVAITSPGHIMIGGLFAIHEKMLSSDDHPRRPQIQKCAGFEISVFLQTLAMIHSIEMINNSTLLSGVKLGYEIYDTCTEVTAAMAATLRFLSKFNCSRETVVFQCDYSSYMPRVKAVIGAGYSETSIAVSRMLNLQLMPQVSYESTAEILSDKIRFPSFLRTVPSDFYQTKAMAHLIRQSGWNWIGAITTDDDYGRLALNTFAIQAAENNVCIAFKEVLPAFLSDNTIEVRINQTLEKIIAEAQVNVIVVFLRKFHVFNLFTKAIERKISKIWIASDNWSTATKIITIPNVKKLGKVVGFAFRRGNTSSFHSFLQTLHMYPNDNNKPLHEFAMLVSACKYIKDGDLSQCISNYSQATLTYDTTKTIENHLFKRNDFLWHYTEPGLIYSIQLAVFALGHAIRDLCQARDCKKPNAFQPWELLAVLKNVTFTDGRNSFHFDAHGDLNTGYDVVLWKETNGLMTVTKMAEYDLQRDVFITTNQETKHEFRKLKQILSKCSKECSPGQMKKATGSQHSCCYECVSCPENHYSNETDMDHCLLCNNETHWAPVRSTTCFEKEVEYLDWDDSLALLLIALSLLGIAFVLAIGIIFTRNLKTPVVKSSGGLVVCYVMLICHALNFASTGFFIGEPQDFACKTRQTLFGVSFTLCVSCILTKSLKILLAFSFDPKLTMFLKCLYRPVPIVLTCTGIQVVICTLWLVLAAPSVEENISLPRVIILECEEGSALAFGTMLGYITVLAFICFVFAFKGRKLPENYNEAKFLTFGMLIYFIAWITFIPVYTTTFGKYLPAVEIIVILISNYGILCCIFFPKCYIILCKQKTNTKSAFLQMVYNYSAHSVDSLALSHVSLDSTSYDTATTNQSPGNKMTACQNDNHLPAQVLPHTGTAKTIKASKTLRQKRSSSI
- protocol-summary: Antagonist activity at mouse GPRC6A receptor expressed in HEK293 cells assessed as inhibition of L-ornithine-induced inositol monophosphate accumulation after 1 hr by FRET assay

{"columns": ["molecule", "modifier-sign", "IC50 [µM]"],
 "data": [
  ["CN(CC(=O)c1c(CO)[nH]c2ccccc12)CC(=O)N1CCOCC1", ">", 400],
  ["CN(CC(=O)c1c(-c2ccccc2)[nH]c2ccccc12)CC(=O)N1CCOCC1", "=", 21.9],
  ["CN(CC(=O)c1c(-c2ccccc2)[nH]c2ccccc12)CC(=O)N1CCCC1", "=", 57.3],
  ["COc1ccc(-c2[nH]c3ccccc3c2C(=O)CN(C)CC(=O)N2CCOCC2)cc1", "=", 9.33],
  ["CN(CC(=O)N1CCOCC1)CC(O)c1c(-c2ccccc2)[nH]c2ccccc12 (stereo not given)", ">", 400]
]}
